Target: T1, human LAP-TGFB1 Fc fusion (human)
T1 construct: also called human LAP-TGFβ1-Fc; human LAP-TGFβ-Fc isoform 1
T1 sequence (chain, as listed by the source limits assumed): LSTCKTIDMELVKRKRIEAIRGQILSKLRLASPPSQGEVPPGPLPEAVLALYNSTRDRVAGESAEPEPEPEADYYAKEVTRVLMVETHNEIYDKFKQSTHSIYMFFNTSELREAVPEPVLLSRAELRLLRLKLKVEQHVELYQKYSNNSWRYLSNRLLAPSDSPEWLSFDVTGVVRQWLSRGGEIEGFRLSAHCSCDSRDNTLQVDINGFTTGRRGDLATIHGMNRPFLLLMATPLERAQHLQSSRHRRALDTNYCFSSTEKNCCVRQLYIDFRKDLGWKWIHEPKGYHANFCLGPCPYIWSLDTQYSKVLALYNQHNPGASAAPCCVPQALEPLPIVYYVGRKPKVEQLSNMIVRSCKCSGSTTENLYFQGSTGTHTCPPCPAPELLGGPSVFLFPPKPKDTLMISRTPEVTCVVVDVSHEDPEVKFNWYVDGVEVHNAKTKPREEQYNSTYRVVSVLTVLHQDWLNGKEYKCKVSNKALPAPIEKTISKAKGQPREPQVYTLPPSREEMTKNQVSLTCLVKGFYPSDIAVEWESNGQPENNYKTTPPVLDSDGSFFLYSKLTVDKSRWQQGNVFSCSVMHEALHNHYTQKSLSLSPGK
Test: SPR pH 7.4, antigen-Fc captured, Fab analyte
MEASURED_ATTRIBUTE: kon (M⁻¹ s⁻¹)

>>> value_reported("58BLH (Fab, V domains shown, also called 10BLM Fab) VH: EVQLVQSGAEVKKPGASVKVSCKASGYTFTSYDMHWVRQAPGQGLEWMGRIDPQSGGTKYAQKFQGRATLTVDTSTSTAYMELSRLRSDDTAVYYCARWDYGGYFDVWGQGTLVTVSS VL: DIQMTQSPSSLSASVGDRVTITCRASQDIYNYLNWYQQKPGKAVKLLIYYTSVLETGVPSRFSGSGSGTDYTLTISSLQPEDFATYFCQQGDTLPWTFGQGTKLEIK")
"5.93e+06"
>>> value_reported("68BLH (Fab, V domains shown, also called 20BLM Fab) VH: EVQLVQSGAEVKKPGASVKVSCKASGYTFTSYDMHWVRQAPGQGLEWMGRIDPQSGGEKYAQKFQGRATLTVDTSTSTAYMELSRLRSDDTAVYYCARYDYGGYFDVWGQGTLVTVSS VL: DIQMTQSPSSLSASVGDRVTITCRASQDIYNYLNWYQQKPGKAVKLLIYYTSRLETGVPSRFSGSGSGTDYTLTISSLQPEDFATYFCQQGDTLPWTFGQGTKLEIK")
"7.57e+06"
>>> value_reported("64BLH (Fab, V domains shown, also called 16BLM Fab) VH: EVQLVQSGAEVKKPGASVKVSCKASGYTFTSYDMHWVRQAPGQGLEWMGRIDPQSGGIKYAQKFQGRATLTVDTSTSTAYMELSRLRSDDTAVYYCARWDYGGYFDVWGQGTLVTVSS VL: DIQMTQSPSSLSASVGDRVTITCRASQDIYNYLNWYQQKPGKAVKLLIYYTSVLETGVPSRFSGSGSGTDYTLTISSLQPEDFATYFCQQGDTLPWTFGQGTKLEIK")
"6.51e+06"
>>> value_reported("62BLH (Fab, V domains shown, also called 14BLM Fab) VH: EVQLVQSGAEVKKPGASVKVSCKASGYTFTSYDTHWVRQAPGQGLEWMGRIDPQSGGIKYAQKFQGRATLTVDTSTSTAYMELSRLRSDDTAVYYCARWDYGGYFDVWGQGTLVTVSS VL: DIQMTQSPSSLSASVGDRVTITCRASQDIYNYLNWYQQKPGKAVKLLIYYTSYLETGVPSRFSGSGSGTDYTLTISSLQPEDFATYFCQQGDTLPWTFGQGTKLEIK")
"4.69e+06"
>>> value_reported("67BLH (Fab, V domains shown, also called 19BLM Fab) VH: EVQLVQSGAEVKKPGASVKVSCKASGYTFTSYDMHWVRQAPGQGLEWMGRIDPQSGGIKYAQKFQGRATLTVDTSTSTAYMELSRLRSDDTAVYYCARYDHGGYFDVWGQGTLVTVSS VL: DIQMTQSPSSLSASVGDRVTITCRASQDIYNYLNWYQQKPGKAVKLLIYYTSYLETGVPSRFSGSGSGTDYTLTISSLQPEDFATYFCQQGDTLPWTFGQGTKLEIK")
"4.95e+06"
>>> value_reported("20E6 Fab (80BGJ/85BIT) (Fab, V domains shown, also called 20E6 (80BGJ); 20E6 (85BIT)) VH: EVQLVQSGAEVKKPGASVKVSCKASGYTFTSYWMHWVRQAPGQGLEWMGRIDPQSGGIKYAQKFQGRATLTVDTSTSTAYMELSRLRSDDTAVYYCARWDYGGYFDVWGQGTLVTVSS VL: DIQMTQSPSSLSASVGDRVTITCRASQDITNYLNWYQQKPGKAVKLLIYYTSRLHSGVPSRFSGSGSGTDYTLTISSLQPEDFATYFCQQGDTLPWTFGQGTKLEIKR")
"1.32e+06"
>>> value_reported("63BLH (Fab, V domains shown, also called 15BLM Fab; 015BLM Fab) VH: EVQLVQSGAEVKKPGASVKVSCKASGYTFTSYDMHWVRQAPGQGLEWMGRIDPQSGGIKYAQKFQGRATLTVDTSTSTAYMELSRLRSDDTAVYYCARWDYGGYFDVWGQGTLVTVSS VL: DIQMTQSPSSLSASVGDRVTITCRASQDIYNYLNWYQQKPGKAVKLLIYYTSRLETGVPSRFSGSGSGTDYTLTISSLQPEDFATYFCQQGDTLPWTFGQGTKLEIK")
"6.79e+06"
>>> value_reported("57BLH (Fab, V domains shown, also called 09BLM Fab) VH: EVQLVQSGAEVKKPGASVKVSCKASGYTFTSYDMHWVRQAPGQGLEWMGRIDPISGGIKYAQKFQGRATLTVDTSTSTAYMELSRLRSDDTAVYYCARWDYGGYFDVWGQGTLVTVSS VL: DIQMTQSPSSLSASVGDRVTITCRASQDIFNYLNWYQQKPGKAVKLLIYYTSHLETGVPSRFSGSGSGTDYTLTISSLQPEDFATYFCQQGDTLPWTFGQGTKLEIK")
"6.06e+06"
